Biological target: α3β4 AChRs (Homo sapiens, UniProt P30926+P32297)
Construct: expressed in transfected cells
Sequence (P32297 32-505): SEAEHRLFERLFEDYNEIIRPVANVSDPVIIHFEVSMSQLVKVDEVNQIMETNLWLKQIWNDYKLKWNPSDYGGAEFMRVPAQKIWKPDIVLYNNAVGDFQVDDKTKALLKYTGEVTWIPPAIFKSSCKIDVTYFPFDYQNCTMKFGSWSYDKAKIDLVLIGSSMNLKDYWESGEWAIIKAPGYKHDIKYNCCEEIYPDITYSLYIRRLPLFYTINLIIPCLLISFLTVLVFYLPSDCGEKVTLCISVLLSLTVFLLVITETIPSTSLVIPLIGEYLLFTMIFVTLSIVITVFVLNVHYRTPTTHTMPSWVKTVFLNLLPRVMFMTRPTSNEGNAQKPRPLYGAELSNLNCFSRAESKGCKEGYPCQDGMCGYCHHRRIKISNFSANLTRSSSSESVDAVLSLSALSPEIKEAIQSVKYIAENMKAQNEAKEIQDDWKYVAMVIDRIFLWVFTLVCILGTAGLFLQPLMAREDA
Sequence (P30926 22-498): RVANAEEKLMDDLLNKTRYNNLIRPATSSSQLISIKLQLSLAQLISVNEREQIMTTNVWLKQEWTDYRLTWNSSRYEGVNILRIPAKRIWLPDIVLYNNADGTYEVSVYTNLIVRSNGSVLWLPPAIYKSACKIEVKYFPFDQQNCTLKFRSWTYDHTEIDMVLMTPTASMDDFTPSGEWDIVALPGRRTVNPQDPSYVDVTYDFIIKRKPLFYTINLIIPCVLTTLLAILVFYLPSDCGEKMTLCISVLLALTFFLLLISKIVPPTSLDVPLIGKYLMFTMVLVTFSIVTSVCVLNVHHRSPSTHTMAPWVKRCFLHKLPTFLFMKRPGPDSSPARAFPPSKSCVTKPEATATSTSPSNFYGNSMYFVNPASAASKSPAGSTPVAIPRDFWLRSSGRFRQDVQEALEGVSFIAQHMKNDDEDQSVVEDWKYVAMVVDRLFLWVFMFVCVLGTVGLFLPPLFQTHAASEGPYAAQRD
Test: Acute activation, FLEXStation membrane potential dye, α3β4 cell line
Assay type: cell-based
Conditions: α3β4
Method: The parental cell line used for transfections was tsA201, derived from the human embryonic kidney cell line (HEK) 293 [33]. […] The cell line permanently expressing α3β4 AChRs has been described, [34]. […] Responses to nicotinic agonists were determined using a FLEXStation microplate fluorometer (Molecular Devices, Sunnyvale, CA) as described. […] Data were graphed using GraphPad Prism software. […] The EC50 and IC50 were calculated from the curves. […]
Exercise: for every item that follows, state its recorded Hill (activation).
When you answer, write just the number.

Quick one: Hill (activation) for CC(=O)OCC[N+](C)(C)C [ACh, acetylcholine] ?
1.8

Quick one: Hill (activation) for OCCCCC#Cc1cncc(OC[C@@H]2CCN2)c1 [Sazetidine-A] ?
1.3

Quick one: Hill (activation) for CN1CCC[C@H]1c1cccnc1 [Nicotine, nicotine] ?
1.1

Quick one: Hill (activation) for c1cnc2cc3c(cc2n1)[C@@H]1CNC[C@H]3C1 [Varenicline, varenicline] ?
1.4

Quick one: Hill (activation) for O=c1cccc2n1C[C@@H]1CNC[C@H]2C1 [Cytisine, cytisine] ?
1.3
